- system.under.test: angiotensin-converting enzymes (ACEs) from porcine kidneys (EC 3.4.15.1) (Sus scrofa)
- Construct: angiotensin-converting enzymes (ACEs) from porcine kidneys (EC 3.4.15.1); purchased Sigma (Sigma Chemical Company, Saint Louis, MO, USA); host or cells: porcine kidney
- Sequence (F1RRW5 34-1309): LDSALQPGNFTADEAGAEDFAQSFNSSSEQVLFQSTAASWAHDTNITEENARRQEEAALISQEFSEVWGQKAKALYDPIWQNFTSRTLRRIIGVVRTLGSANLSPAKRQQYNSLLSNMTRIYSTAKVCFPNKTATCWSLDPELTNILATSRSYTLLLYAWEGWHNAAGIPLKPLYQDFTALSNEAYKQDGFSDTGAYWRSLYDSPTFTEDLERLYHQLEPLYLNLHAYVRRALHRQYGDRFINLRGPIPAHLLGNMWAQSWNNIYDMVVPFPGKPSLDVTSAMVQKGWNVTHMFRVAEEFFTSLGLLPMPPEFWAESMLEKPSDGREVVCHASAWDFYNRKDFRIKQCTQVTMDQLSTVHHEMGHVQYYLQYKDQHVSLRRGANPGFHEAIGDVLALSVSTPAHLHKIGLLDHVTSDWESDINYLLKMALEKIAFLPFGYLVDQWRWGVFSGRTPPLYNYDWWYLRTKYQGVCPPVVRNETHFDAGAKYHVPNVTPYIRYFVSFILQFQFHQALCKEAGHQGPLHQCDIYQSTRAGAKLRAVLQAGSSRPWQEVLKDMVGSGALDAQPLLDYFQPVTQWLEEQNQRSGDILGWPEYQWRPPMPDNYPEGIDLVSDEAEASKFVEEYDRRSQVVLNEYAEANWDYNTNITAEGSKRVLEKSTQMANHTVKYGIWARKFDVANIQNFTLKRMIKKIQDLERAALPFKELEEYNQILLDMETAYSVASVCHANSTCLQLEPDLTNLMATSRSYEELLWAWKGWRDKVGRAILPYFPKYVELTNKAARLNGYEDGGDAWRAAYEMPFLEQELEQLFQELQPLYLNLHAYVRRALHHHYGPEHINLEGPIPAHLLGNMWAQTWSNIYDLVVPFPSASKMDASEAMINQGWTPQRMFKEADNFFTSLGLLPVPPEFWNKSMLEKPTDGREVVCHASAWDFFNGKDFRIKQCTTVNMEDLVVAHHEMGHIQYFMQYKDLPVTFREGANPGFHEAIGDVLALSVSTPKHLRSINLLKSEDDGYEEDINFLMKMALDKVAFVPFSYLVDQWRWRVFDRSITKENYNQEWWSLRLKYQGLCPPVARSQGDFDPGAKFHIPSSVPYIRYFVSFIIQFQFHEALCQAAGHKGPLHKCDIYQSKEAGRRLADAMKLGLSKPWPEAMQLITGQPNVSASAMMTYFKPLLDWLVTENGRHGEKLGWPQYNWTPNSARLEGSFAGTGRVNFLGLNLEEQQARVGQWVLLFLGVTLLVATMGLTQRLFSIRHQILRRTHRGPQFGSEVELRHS
- protocol.notes: biochemical
pIC50: −log10 of the molar value.
Recorded measurements of pIC50, one per entry
property.label: pIC50

[[record]]
compound = "O=c1c(O)c(-c2ccc(O[C@@H]3O[C@H](CO)[C@@H](O)[C@H](O)[C@H]3O)c(O)c2)oc2cc(O)cc(O)c12 [Q4′G, quercetin-4′-O-β-glucoside]"
property_label = "pIC50"
test_result = 3.84

[[record]]
compound = "O=c1c(O[C@@H]2O[C@H](CO)[C@@H](O)[C@H](O)[C@H]2O)c(-c2ccc(O[C@@H]3O[C@H](CO)[C@@H](O)[C@H](O)[C@H]3O)c(O)c2)oc2cc(O)cc(O)c12 [Q3,4′G, quercetin-3,4′-di-O-β-glucoside]"
property_label = "pIC50"
test_result = 3.94

[[record]]
compound = "C[C@@H]1O[C@@H](OC[C@H]2O[C@@H](Oc3c(-c4ccc(O)c(O)c4)oc4cc(O)cc(O)c4c3=O)[C@H](O)[C@@H](O)[C@@H]2O)[C@H](O)[C@H](O)[C@H]1O [Ru, quercetin-3-O-rutinoside]"
property_label = "pIC50"
test_result = 3.92

[[record]]
compound = "O=c1c(O[C@@H]2O[C@H](CO)[C@@H](O)[C@H](O)[C@H]2O)c(-c2ccc(O)c(O)c2)oc2cc(O)cc(O)c12 [Compound Q3G, quercetin-3-O-β-glucoside]"
property_label = "pIC50"
test_result = 3.87

[[record]]
compound = "O=c1c(O)c(-c2ccc(O)c(O)c2)oc2cc(O)cc(O)c12"
property_label = "pIC50"
test_result = 4.23

